Kindly supply the reported EC50 values for the records listed here.
tested on: MM1.s (human myeloma cell line); assay: Cell proliferation assay (CellTiter-Glo), MM1.s; assay type: cell-based; conditions: MM1.s cells, read-out: EC50 (μM) MM1.s

Known EC50 results, listed for orientation:
[
  {
    "compound": "N[C@H]1CCCN(c2ccncc2NC(=O)c2ccc(F)c(-c3ccccc3)n2)C1",
    "EC50": "5 to 10 µM"
  },
  {
    "compound": "CO[C@@H]1C[C@H](N)CN(c2ccncc2NC(=O)c2nc(-c3c(F)cccc3F)ccc2N)C1",
    "EC50": "< 1 µM"
  },
  {
    "compound": "Nc1ccc(-c2c(F)cccc2F)nc1C(=O)Nc1cnccc1N1CCCC2(CCNC2)C1 (centres unmarked)",
    "EC50": "1 to 5 µM"
  },
  {
    "compound": "CC(C)NC(=O)c1ccc(F)c(-c2ccc(N)c(C(=O)Nc3cnccc3N3CCC[C@H](N)C3)n2)c1",
    "EC50": "< 1 µM"
  }
]

Quick batch: EC50 for everything below.
1. Nc1cc(F)c(-c2ccccc2F)nc1C(=O)Nc1cnccc1N1CCC[C@H](N)C1
2. Nc1ccc(-c2c(F)cccc2F)nc1C(=O)Nc1cnccc1N1CCC[C@@H](N)C1
3. Nc1ccc(-c2c(F)cccc2F)nc1C(=O)Nc1cnccc1N1CC[C@H](F)[C@@H](N)C1
4. CCCOc1ccc(F)c(-c2ccc(N)c(C(=O)Nc3cnccc3N3CCC[C@H](N)C3)n2)c1F

1: 1 to 5 µM; 2: 1 to 5 µM; 3: 5 to 10 µM; 4: 1 to 5 µM

Origin of measurements: patent US20140249135A1
